Tested on: C. parvum
procedureText: In vitro inhibition of C. parvum development in HCT-8 cells
Assay type: cell-based
experimentalParameters: Cryptosporidium parvum; HCT-8 cells, Table 4; read-out: EC50 for inhibition of C. parvum development in HCT-8 cells
pEC50: −log10 of the molar value.
valueKind: pEC50

I. O=C(Cc1cc(Cl)cc(C(F)(F)F)c1)N1CCN(c2ccc3nncn3n2)CC1
II. O=C(Cc1ccc(S(F)(F)(F)(F)F)cc1)N1CCN(c2ccc3nncn3n2)CC1
III. O=C(Cc1ccc(F)c(Br)c1)N1CCN(c2ccc3nncn3n2)CC1
IN: Sort the list above on pEC50 in ascending fashion. Give the labels in the order specified.
OUT: II, I, III
(II: 4.94, I: 6.39, III: 6.63)

a. Cc1cc(CC(=O)N2CCN(c3ccc4nncn4n3)CC2)ccc1Cl
b. O=C(Cc1cc(F)cc(Cl)c1)N1CCN(c2ccc3nncn3n2)CC1
c. CC1CN(c2ccc3nncn3n2)CCN1C(=O)Cc1ccc(Cl)c(Cl)c1 (stereo not shown)
d. O=C(Cc1ccc(Cl)c(F)c1)N1CCN(c2ccc3nncn3n2)CC1
IN: // ranking: key=pEC50, reverse=True Give the labels in the order specified.
OUT: a, d, b, c

I. O=C(Cc1ccc(F)c(Cl)c1)N1CCN(c2ccc3nncn3n2)CC1
II. N#Cc1ccc(CC(=O)N2CCN(c3ccc4nncn4n3)CC2)cc1
IN: Would you let me know which has the greater pEC50 value, I or II ? Refer to your chosen item by its label in the answer.
OUT: I

----------
Test system: C. parvum
procedureText: In vitro inhibition of C. parvum development in HCT-8 cells
Format: cell-based
experimentalParameters: Cryptosporidium parvum; HCT-8 cells, Table 4; read-out: EC50 for inhibition of C. parvum development in HCT-8 cells
valueKind: EC50 (µM)

Worked set:
molecule	measurementUnits	EC50
COc1ccc(CC(=O)N2CCN(c3ccc4nncn4n3)CC2)cc1 [Example 2761]	µM	16.4
O=C(Cc1ccc(F)cc1)N1CCN(c2ccc3nncn3n2)CC1 [Example 2632]	µM	1.18
O=C(Cc1ccc(C(F)(F)F)cc1)N1CCN(c2ccc3nncn3n2)CC1 [Example 10484]	µM	5.45
CC(C)(C)OC(=O)NCC#Cc1ccc(CC(=O)N2CCN(c3ccc4nncn4n3)CC2)cc1 [Example 2811]	µM	12.8
O=C(Cc1ccc(Cl)c(Cl)c1)N1CCN(c2ccc3nnc(-c4ccnc(C(F)(F)F)c4)n3n2)CC1 [Example 10262]	µM	6.11

A. O=C(Cc1cccc(Cl)c1)N1CCN(c2ccc3nncn3n2)CC1 [Example 2764]
B. O=C(Cc1ccc(C(F)(F)F)c(F)c1)N1CCN(c2ccc3nncn3n2)CC1 [Example 10480]
IN: Please choose the item with the lower EC50 value from this pair: A and B Refer to your chosen item by its label in the answer.
OUT: B

P. O=C(Cc1cccc(S(F)(F)(F)(F)F)c1)N1CCN(c2ccc3nncn3n2)CC1 [Example 10442]
Q. O=C(Cc1ccc2ccccc2c1)N1CCN(c2ccc3nncn3n2)CC1 [Example 2749]
IN: Would you let me know which has the greater EC50 value, P or Q ? Refer to your chosen item by its label in the answer.
OUT: Q

A. O=C(Cc1ccc(Br)c(F)c1)N1CCN(c2ccc3nncn3n2)CC1 [Example 10240]
B. O=C(Cc1ccc(Cl)c(Cl)c1)N1CCN(c2ccc3nnc(C(F)(F)F)n3n2)CC1 [Example 2810]
C. O=C(Cc1ccc(Cl)c(Cl)c1)N1CCN(c2ccc3nnc(Cc4ccccc4)n3n2)CC1 [Example 10249]
IN: Arrange these 3 molecules in increasing order of EC50. Give the labels in the order specified.
OUT: A, C, B
(A: 0.773 µM, C: 16 µM, B: 29 µM)
